All values here come from the supplement of paper PMC9732359.

assay.text: protein stability index of a GFP-peptide fusion (yeast GPS) (PSI 1-4); higher = more stable; sorted into four equal gates, so the index is relative within each strain
reported.conditions: ubr1∆
assay.endpoint: protein stability index
Reply with just the number.

NKEYTLVHGIFGAKMSR [SIN4]	3.09
GGDWERRNRYKTYYGIH [RPN7]	1.18
ISDVKIQVAAFIYGMSA [PRP8]	1.94

GET /values?readout=protein stability index&item= EGIKVVDIDDPDMMVDS [SNF2]
2.97

Look up protein stability index: GVEYRLRLRISRKRNEE [RPL31A]
1.18

What does the record list as protein stability index for LFKALKVILNERGGKFH [RGR1] ?
2.64

# lookup: protein stability index of VYANNPEVSDDGGLEEE [SIR3]
3.04

Need protein stability index, item LKESVEGEFNGDTIELA [PRE8]
3.2

Endpoint output: protein stability index of LKNPEIFQRVGIKPPKG [RPT4] . Value?
2.31

====

Below, each entry is listed with its recorded protein stability index.
assay.text: protein stability index of a GFP-peptide fusion (yeast GPS) (PSI 1-4); higher = more stable; sorted into four equal gates, so the index is relative within each strain
reported.conditions: pdr5∆
Please reply with the value in numeric form only.

Past entries and their recorded results:
QLTEFWTELCQREFKEI [NNF1]	3.41
NGSEKVLIAQERSAGNI [RPB2]	3.44
EDMETQASDPSKKKKNI [RPC53]	3.44

What value of protein stability index has been recorded for this entry: DNTSHDEQDDDNVNSTT [BRN1]
3.19

// lookup protein stability index for KMPGGFTITVARKYLQT [FAS2]
1.47

What does the record list as protein stability index for SFHVQKKTCSSCGYPSA [RPL37B] ?
2.18

Would you mind telling me what protein stability index value was observed for DEKNKNNNEDNENNNNS [MED2] ?
3.39

Fill blank: measured protein stability index of the sequence FEKDLMAYFDENLNRNW [BRN1] is ____.
3.27

Name the reported protein stability index value associated with the sequence PSVAAEYVYFFNNTSVI [RPC40]
1.48

protein stability index for HSNRCIVFSKKEPFPHS [CSN12] ?
2.85

Entry DMATGSNDTTAFNDSCV [SRB8] : reported protein stability index = ?
3.07

====

assay.text: protein stability index of a GFP-peptide fusion (yeast GPS) (PSI 1-4); higher = more stable; sorted into four equal gates, so the index is relative within each strain
reported.conditions: pdr5∆
Recorded protein stability index for the following sequences

Sample records with protein stability index:
KDQYVPEVSALDLSRSN [RPS17A]	2.2
LTVSIKIALMNIPKPLN [RGR1]	1.43
ARDEILPLRLQFNEFIQ [PGD1]	3.01
GELVLDIEVPDVNALKF [SNF12]	3.55
DDDTFSDREMAALIASK [RPN2]	1.55
SLAWSADGQTLFAGYTD [ASC1]	3.05
DFLRYINIKYLRLDGHT [SNF2]	1.32
IADELMKLDDSSKTRNV [ITC1]	2.09
DKKNKRLKFGHRLIATH [SNF2]	1.8
DLSRIMDWLDNWGRKEH [ITC1]	3.33

Which protein stability index reading was recorded for the sequence RGQQVENPTDNFIIWIN [GRR1] ?
2.35

If you can, please state the reported protein stability index value of AQKCGWTIPHKKWNDLK [SIR2] .
3.26

For RSISWAPSIGRWYQLIA [YGL100W/SEH1] , what is its reported protein stability index?
1.15

Need protein stability index of EKFSSFIESIVVDFKNK [SNF12] , thanks.
2.84

Item PLPPRIDPSVTMMTVEE [RPT1] has what recorded protein stability index?
1.9
